# Test system: Pasteurella multocida
# Assay Name: Antibacterial activity against Pasteurella multocida by CLSI M7-A7 broth microdilution method
# Format: functional
Readout Kind: MIC90

Examples with answers:
{"Molecule": "CC(C)(O/N=C(\\C(=O)N[C@@H]1C(=O)N2C(C(=O)[O-])=C(C[n+]3ccccc3)CS[C@H]12)c1csc(N)n1)C(=O)O", "Reported": "≤ 1 µg/mL"}
{"Molecule": "CCO/N=C(\\C(=O)N[C@@H]1C(=O)N2C(C(=O)[O-])=C(Sc3nc(-c4cc[n+](C)cc4)cs3)CS[C@H]12)c1nsc(NP(=O)(O)O)n1", "Reported": "0.06 µg/mL"}
{"Molecule": "C[C@@H](O)[C@H]1C(=O)N2C(C(=O)O)=C(SCCNC=N)C[C@H]12 [IMIPENEM ANHYDROUS]", "Reported": "2 µg/mL"}
{"Molecule": "CC(=O)NC[C@H]1CN(c2ccc(N3CCOCC3)c(F)c2)C(=O)O1", "Reported": "> 4 µg/mL"}
{"Molecule": "CC1(C)S[C@@H]2[C@H](NC(=O)Cc3ccccc3)C(=O)N2[C@H]1C(=O)O", "Reported": "0.25 µg/mL"}
{"Molecule": "CO/N=C(\\C(=O)N[C@@H]1C(=O)N2C(C(=O)O)=C(CSc3nc(=O)c(O)nn3C)CS[C@H]12)c1csc(N)n1", "Reported": "≤ 0.015 µg/mL"}
{"Molecule": "C[C@H]1COc2c(N3CCN(C)CC3)c(F)cc3c(=O)c(C(=O)O)cn1c23.C[C@H]1COc2c(N3CCN(C)CC3)c(F)cc3c(=O)c(C(=O)O)cn1c23.O", "Reported": "0.03 µg/mL"}

Challenge: Tell me the measured MIC90 of CC[C@H]1OC(=O)[C@H](C)[C@@H](O[C@H]2C[C@@](C)(OC)[C@@H](O)[C@H](C)O2)[C@H](C)[C@@H](O[C@@H]2O[C@H](C)C[C@H](N(C)C)[C@H]2O)[C@](C)(O)C[C@@H](C)C(=O)[C@H](C)[C@@H](O)[C@]1(C)O , please.
Response given: 4 µg/mL

* * *

Assignment: determine reported Activity for the given molecules.
# Test system: Streptococcus agalactiae
# Assay Name: Antibacterial activity against erythromycin-nonsusceptible Streptococcus agalactiae assessed as susceptible isolates by CLSI M7-A7 broth microdilution method
# Type: functional
Answers are plain numbers, in %.

Provide Activity values for the following items, in order.
1. C[C@H]1COc2c(N3CCN(C)CC3)c(F)cc3c(=O)c(C(=O)O)cn1c23.C[C@H]1COc2c(N3CCN(C)CC3)c(F)cc3c(=O)c(C(=O)O)cn1c23.O [LEVOFLOXACIN]
2. CC[C@H]1OC(=O)[C@H](C)[C@@H](O[C@H]2C[C@@](C)(OC)[C@@H](O)[C@H](C)O2)[C@H](C)[C@@H](O[C@@H]2O[C@H](C)C[C@H](N(C)C)[C@H]2O)[C@](C)(O)C[C@@H](C)C(=O)[C@H](C)[C@@H](O)[C@]1(C)O [ERYTHROMYCIN]
3. CC1(C)S[C@@H]2[C@H](NC(=O)Cc3ccccc3)C(=O)N2[C@H]1C(=O)O [PENICILLIN G]
4. CN[C@H](CC(C)C)C(=O)N[C@H]1C(=O)N[C@@H](CC(N)=O)C(=O)N[C@H]2C(=O)N[C@H]3C(=O)N[C@H](C(=O)N[C@H](C(=O)O)c4cc(O)cc(O)c4-c4cc3ccc4O)[C@H](O)c3ccc(c(Cl)c3)Oc3cc2cc(c3O[C@@H]2O[C@H](CO)[C@@H](O)[C@H](O)[C@H]2O[C@H]2C[C@](C)(N)[C@H](O)[C@H](C)O2)Oc2ccc(cc2Cl)[C@H]1O [VANCOMYCIN]
5. CCCCCCCCCC(=O)N[C@@H](Cc1c[nH]c2ccccc12)C(=O)N[C@H](CC(N)=O)C(=O)N[C@@H](CC(=O)O)C(=O)N[C@@H]1C(=O)NCC(=O)N[C@@H](CCCN)C(=O)N[C@@H](CC(=O)O)C(=O)N[C@H](C)C(=O)N[C@@H](CC(=O)O)C(=O)NCC(=O)N[C@H](CO)C(=O)N[C@@H]([C@H](C)CC(=O)O)C(=O)N[C@@H](CC(=O)c2ccccc2N)C(=O)O[C@@H]1C
6. CC(=O)NC[C@H]1CN(c2ccc(N3CCOCC3)c(F)c2)C(=O)O1 [LINEZOLID]

Response given:
1. 97.6
2. 0
3. 95.2
4. 100
5. 100
6. 100

Challenge: Tell me the measured Activity of CO/N=C(\C(=O)N[C@@H]1C(=O)N2C(C(=O)O)=C(CSc3nc(=O)c(O)nn3C)CS[C@H]12)c1csc(N)n1 [CEFTRIAXONE] , please.
Response given: 97.6

* * *

# Test system: Klebsiella pneumoniae
# Assay Name: Antibacterial activity against ceftazidime-susceptible Klebsiella pneumoniae by CLSI M7-A7 broth microdilution method
# Type: functional
Assignment: determine reported MIC90 for the given compounds.
Numbers only, in µg/mL.

Examples with answers:
{"Compound": "C[C@H]1COc2c(N3CCN(C)CC3)c(F)cc3c(=O)c(C(=O)O)cn1c23.C[C@H]1COc2c(N3CCN(C)CC3)c(F)cc3c(=O)c(C(=O)O)cn1c23.O", "Test System": "Klebsiella pneumoniae", "Unit Abbreviation": "µg/mL", "MIC90": 0.25}
{"Compound": "CC(C)(O/N=C(\\C(=O)N[C@@H]1C(=O)N2C(C(=O)[O-])=C(C[n+]3ccccc3)CS[C@H]12)c1csc(N)n1)C(=O)O", "Test System": "Klebsiella pneumoniae", "Unit Abbreviation": "µg/mL", "MIC90": 0.25}
{"Compound": "CCN1CCN(C(=O)N[C@@H](C(=O)N[C@@H]2C(=O)N3[C@@H]2SC(C)(C)[C@@H]3C(=O)O)c2ccccc2)C(=O)C1=O", "Test System": "Klebsiella pneumoniae", "Unit Abbreviation": "µg/mL", "MIC90": 8}

Provide MIC90 values for the following items, in order.
1. C[C@@H](O)[C@H]1C(=O)N2C(C(=O)O)=C(SCCNC=N)C[C@H]12 [IMIPENEM ANHYDROUS]
2. CCO/N=C(\C(=O)N[C@@H]1C(=O)N2C(C(=O)[O-])=C(Sc3nc(-c4cc[n+](C)cc4)cs3)CS[C@H]12)c1nsc(NP(=O)(O)O)n1
3. CO/N=C(\C(=O)N[C@@H]1C(=O)N2C(C(=O)O)=C(CSc3nc(=O)c(O)nn3C)CS[C@H]12)c1csc(N)n1

Response given:
0.5
0.25
0.12

* * *

# Test system: Enterobacter cloacae
# Assay Name: Antibacterial activity against ceftazidime-nonsusceptible Enterobacter cloacae by CLSI M7-A7 broth microdilution method
# Type: functional
Readout Kind: MIC50

Examples with answers:
{"Molecule": "CC1(C)S[C@@H]2[C@H](NC(=O)[C@H](N)c3ccccc3)C(=O)N2[C@H]1C(=O)O [AMPICILLIN]", "Readout Kind": "MIC50", "Reported": "> 32 mg/L"}
{"Molecule": "CO/N=C(\\C(=O)N[C@@H]1C(=O)N2C(C(=O)O)=C(CSc3nc(=O)c(O)nn3C)CS[C@H]12)c1csc(N)n1 [CEFTRIAXONE]", "Readout Kind": "MIC50", "Reported": "> 16 mg/L"}
{"Molecule": "C[C@@H](O)[C@H]1C(=O)N2C(C(=O)O)=C(SCCNC=N)C[C@H]12 [IMIPENEM ANHYDROUS]", "Readout Kind": "MIC50", "Reported": "0.25 mg/L"}
{"Molecule": "CCO/N=C(\\C(=O)N[C@@H]1C(=O)N2C(C(=O)[O-])=C(Sc3nc(-c4cc[n+](C)cc4)cs3)CS[C@H]12)c1nsc(NP(=O)(O)O)n1 [CEFTAROLINE FOSAMIL]", "Readout Kind": "MIC50", "Reported": "> 16 mg/L"}
{"Molecule": "CCN1CCN(C(=O)N[C@@H](C(=O)N[C@@H]2C(=O)N3[C@@H]2SC(C)(C)[C@@H]3C(=O)O)c2ccccc2)C(=O)C1=O [PIPERACILLIN]", "Readout Kind": "MIC50", "Reported": "> 64 mg/L"}

Provide MIC50 values for the following items, in order.
1. CC(C)(O/N=C(\C(=O)N[C@@H]1C(=O)N2C(C(=O)[O-])=C(C[n+]3ccccc3)CS[C@H]12)c1csc(N)n1)C(=O)O [CEFTAZIDIME]
2. C[C@H]1COc2c(N3CCN(C)CC3)c(F)cc3c(=O)c(C(=O)O)cn1c23.C[C@H]1COc2c(N3CCN(C)CC3)c(F)cc3c(=O)c(C(=O)O)cn1c23.O [LEVOFLOXACIN]

Response given:
["> 32 mg/L", "0.12 mg/L"]

* * *

Assignment: determine reported Activity for the given compounds.
# Tested on: Serratia marcescens
# Assay Name: Antibacterial activity against ceftazidime-susceptible Serratia marcescens assessed as resistant isolates by CLSI M7-A7 broth microdilution method
# Type: functional
Numbers only, in %.

Examples with answers:
{"Compound": "CC(C)(O/N=C(\\C(=O)N[C@@H]1C(=O)N2C(C(=O)[O-])=C(C[n+]3ccccc3)CS[C@H]12)c1csc(N)n1)C(=O)O [CEFTAZIDIME]", "Activity / %": 0}
{"Compound": "CCN1CCN(C(=O)N[C@@H](C(=O)N[C@@H]2C(=O)N3[C@@H]2SC(C)(C)[C@@H]3C(=O)O)c2ccccc2)C(=O)C1=O [PIPERACILLIN]", "Activity / %": 3.4}

# ---- query compound ----
Challenge: Tell me the measured Activity of CO/N=C(\C(=O)N[C@@H]1C(=O)N2C(C(=O)O)=C(CSc3nc(=O)c(O)nn3C)CS[C@H]12)c1csc(N)n1 [CEFTRIAXONE] , please.
Response given: 0
